// growth lookup, one value per entry
- System: T-47D breast
- assay name: NCI-60 one-dose screen, 48 h (100 = growth as untreated, 0 = no growth, -100 = all killed)
- test conditions: 10 µM unless noted
About 83,000 compounds went through this panel and 20% of them were active in at least one assay; those are over-represented in the sample as a whole.
Value expressed in %; do not type the unit.

Some compounds with known growth results, for comparison:
# compound, quantity measured, unit string, reported result
measured = [
    ("O=S(=O)(Nc1nccs1)c1ccc(Nc2nc(-c3ccncc3)cs2)cc1", "growth", "%", 105),
    ("CCCNc1nc(C)[nH]c(=O)c1S", "growth", "%", 98.6),
    ("O=C(Nc1ccc(N=Cc2ccccc2O)cc1)NC1C=c2ccccc2=CC1 (centres undefined)", "growth", "%", 91.3),
]

Ask: # get_value(readout='growth', item= `Cc1cnc(SCc2ccc(Cl)cc2)[nH]c1=S` )
Result: 88

---

// growth lookup, one value per entry
- Tested on: HS 578T breast
- assay name: NCI-60 one-dose screen, 48 h (100 = growth as untreated, 0 = no growth, -100 = all killed)
- test conditions: 10 µM unless noted
About 83,000 compounds went through this panel and 20% of them were active in at least one assay; those are over-represented in the sample as a whole.
Value expressed in %; do not type the unit.

Some compounds with known growth results, for comparison:
# entry smiles, unit string, growth
records = [
    ("COc1ccc2nc(-c3ccc(Cl)cc3)cc(-c3nnc(SC/C(=N/O)c4ccccc4)o3)c2c1", "%", 71.9),
    ("C/C(=N\\NC(=O)c1ccncc1)c1ccc(N)cc1", "%", 96.8),
    ("COc1ccc(NC(=O)c2sc3nc(C)c(C(C)=O)cc3c2N)cc1", "%", 105),
    ("COc1ccc(-c2[nH]c3ccc(OC)cc3c2C=C(C#N)C#N)cc1", "%", 52.4),
    ("CCN(CC)CC#CCOC(=O)[C@]1(C)CCC[C@]2(C)[C@H]3C[C@H]4C(C(C)C)=C[C@]3(CC[C@H]21)[C@@H]1C(=O)CCC(=O)[C@@H]14", "%", 69.3),
]

Shifting focus to the compound that follows.
Ask: # get_value(readout='growth', item= `COc1cccc(NC(=O)Nc2ccc(Oc3ncnc4[nH]c(C)c(C)c34)cc2)c1` )
Result: 84.8

---

// growth lookup, one value per entry
- System: A549/ATCC NSCLC
- assay name: NCI-60 one-dose screen, 48 h (100 = growth as untreated, 0 = no growth, -100 = all killed)
- test conditions: 10 µM unless noted
The panel holds about 83,000 compounds, 20% with a hit somewhere; the sample as a whole holds those more often.
Value expressed in %; do not type the unit.

# compound, unit string, growth
data = [
    ("O=C(/C(=C\\c1c(-c2ccccc2)[nH]c2ccccc12)S(=O)(=O)c1ccccc1)c1ccccc1", "%", 44.6),
    ("COc1cc(C(=O)Nc2cc(OC)c3ccn(C)c3c2)cc2c1C[C@]1(C)CC[C@@H](O)C(C)(C)[C@H]1O2", "%", 24.1),
    ("COc1ccc(C(C)c2cc(OC)c(OC)c(OC)c2)cc1 (centres undefined)", "%", 18.6),
]

Shifting focus to the compound that follows.
Ask: # get_value(readout='growth', item= `C#CCN(CCCOc1ccc(Cl)cc1Cl)CCCSC(=O)CCCCCN1/C(=C\C=C2/CCCC(/C=C/C3=[N+](CCCCCC(=O)[O-])c4ccccc4C3(C)C)=C2Cl)C(C)(C)c2ccccc21` )
Result: 66

---

- Test system: HCC-2998 colon
- assay name: NCI-60 one-dose screen, 48 h (100 = growth as untreated, 0 = no growth, -100 = all killed)
- test conditions: 10 µM unless noted
This is part of a sample that, as a whole, favours compounds with a hit. Of some 83,000 tested, about 20% had one in any assay. Calls of active or inactive are those of the source. Rule for the calls: active = growth percent below 10; inactive = the rest.
// growth lookup, one value per entry

Some compounds with known growth results, for comparison:
# compound, quantity measured, reported result
data = [
    ("FC(F)(F)c1ccc2c(Nc3cccc(C4CC(c5ccccc5)=NN4c4ccc(Cl)cc4)c3)ccnc2c1 (stereo not drawn)", "growth", "66.5% (inactive)"),
    ("C=C1C(=O)O[C@H]2[C@H]1CC/C(COC(=O)Nc1nc3ccccc3[nH]1)=C\\CC[C@@]1(C)O[C@@H]21", "growth", "102% (inactive)"),
]

Ask: # get_value(readout='growth', item= `N#Cc1c(-c2ccc(F)cc2)nc(N=Nc2c(O)[nH]c3ccccc23)nc1N1CCOCC1` )
Result: 96.2% (inactive)

Ask: Also COc1ccc2c(c1)Oc1nc(N)c(C#N)c(N)c1C2Sc1ccc(SC)cc1 (stereo not drawn) ?
Result: 58.9% (inactive)

Ask: Also `Nc1c(C(=O)Nc2ccccn2)sc2nc3c(cc12)CCCCC3` ?
Result: 30.7% (inactive)

Ask: Also COc1ccc2nc(-c3ccc(Cl)cc3)cc(C(=O)N3N=C(c4ccc(N)cc4)CC3c3ccccc3)c2c1 (stereo not drawn) ?
Result: 70.3% (inactive)

Ask: Also `COC(=O)c1cncc(C(=O)Nc2ccc(-n3cnc4ccccc43)cc2)c1` ?
Result: 116% (inactive)

Ask: Also `Cc1cccc2nc3c(n12)C(=O)C(=O)c1ccccc1-3` ?
Result: 115% (inactive)

---

// growth lookup, one value per entry
- System: SNB-19 CNS
- assay name: NCI-60 one-dose screen, 48 h (100 = growth as untreated, 0 = no growth, -100 = all killed)
- test conditions: 10 µM unless noted
- Procedure: Growth inhibition of the SNB-19 human tumor cell line is measured as a screen for anti-cancer activity. Cells are grown in 96 well plates and exposed to the test compound for 48 hours. Compounds are tested at a single concentration, which is 10^-5 M for most compounds. The reported endpoint is percent growth (GI% or GIPRCNT), where numbers from 0 - 100% represent growth inhibition, and numbers from -100% - 0 represent cell death. For example, a value of 40 represents 60% growth inhibition. […]
This is part of a sample that, as a whole, favours compounds with a hit. Of some 83,000 tested, about 20% had one in any assay.
Value expressed in %; do not type the unit.

# compound, unit string, growth
data = [
    ("CC1(C)Cc2c(Br)c(Br)c(Br)c(OCC(O)CN3CCOCC3)c2O1 (centres undefined)", "%", 100),
    ("COc1ccc2c(c1)Oc1nc(N)c(C#N)c(N)c1C2Sc1ccc(O)cc1 (centres undefined)", "%", 106),
    ("N#Cc1ccc(C2C3=C(CCCC3=O)OC3=C2C(=O)c2ccccc2C3=O)cc1 (centres undefined)", "%", 105),
    ("O=[N+]([O-])c1ccc(Oc2ccc(-c3ccccc3)cc2)cc1", "%", 94),
    ("O=C(Nc1nc(-c2ccccc2)cs1)c1cc(-c2ccc(Br)cc2)nc2ccccc12", "%", 79.2),
]

Ask: # get_value(readout='growth', item= `CC(C)(C#N)c1cc(F)cc(C(=O)Nc2cc(Nc3ncccc3-c3ncnc4nc[nH]c34)ccc2F)c1` )
Result: 58

Ask: Also `COc1ccc(-n2cc(-c3ccc(Cl)c(Cl)c3)[nH]c2=O)cc1OC` ?
Result: 90.9

Ask: Also `CCOCCc1c(O)nc(SC)[nH]c1=O` ?
Result: 95.9

Ask: Also `CCOCc1nc2ccccc2c(=O)[nH]1` ?
Result: 101

---

- Tested on: U251 CNS
- assay name: NCI-60 one-dose screen, 48 h (100 = growth as untreated, 0 = no growth, -100 = all killed)
- test conditions: 10 µM unless noted
Compounds without any hit were thinned out: in the full panel of roughly 83,000, 20% have a hit.
quantity measured: growth (%)
Value expressed in %; do not type the unit.

Ask: # get_value(readout='growth', item= `CC(=O)[C@@H]1CC[C@]2(C(=O)O)CC[C@]3(C)[C@H](CC[C@@H]4[C@@]5(C)Cc6c([nH]c7ccccc67)C(C)(C)[C@@H]5CC[C@]43C)[C@@H]12` )
Result: 45

Ask: Also `COC(=O)/C=C1\SC(=Nc2cccc(Cl)c2)N(CCc2c[nH]c3ccccc23)C1=O` ?
Result: 41.1

Ask: Also `O=C(C[n+]1cccc2cc(Cl)ccc21)c1ccc2c(c1)CCCC2` ?
Result: -28.9

Ask: Also `COc1ccc(C(=S)c2cc(OC)c(OC)c(OC)c2)cc1OC(=O)CCl` ?
Result: 4.79

Ask: Also `COC(=O)c1ccc(NC(=O)CSc2nc(-c3ccc(F)cc3)nc3ccccc23)cc1` ?
Result: 63.1

Ask: Also `CC(C)(C)CC(C)(C)Cc1ccc(OCCOCC[N+](C)(C)Cc2ccccc2)cc1` ?
Result: 2.86

Ask: Also Cc1nc2sc(C(=O)Nc3cccc4ccccc34)c(N)c2cc1C(C)O (stereo unspecified) ?
Result: 25.4

Ask: Also `CCCCc1ccc(N=Nc2ccc(OCC[N+](C)(C)C)cc2)cc1` ?
Result: -51.1

Ask: Also O=C1CC(c2ccc(O)c(O)c2)Oc2cc(O)c([C@@H]3O[C@H](CO)[C@@H](O)[C@H](O)[C@H]3O)c(O)c21 (stereo partly specified) ?
Result: 98.1

Ask: Also `O=C(Nc1nc2ccc(C(F)(F)F)cc2s1)c1cc(Cl)ccc1O` ?
Result: 8.44

Ask: Also `S=C(Nc1ccccc1)c1ccccn1` ?
Result: 95.2

Ask: Also `O=C1NC(SCc2ccc(F)cc2)=N/C1=C/c1cccc(OCc2ccc(Cl)cc2)c1` ?
Result: -41.2

Ask: Also `COC(=O)c1oc2c(C(=O)/C=C/c3ccc(OC)cc3)c(OCCCN3CCCCC3)ccc2c1C` ?
Result: 12

Ask: Also `COc1cc(-c2csc(NC(=O)Nc3ccc(Cl)cc3)n2)cc(OC)c1OC` ?
Result: 25.4

Ask: Also `CC1(C)[C@@H](O)CC[C@]2(C)[C@H]3CC[C@@H]4[C@H]5[C@H](c6cn(-c7ccccc7)nn6)CC[C@]5(CO)CC[C@@]4(C)[C@]3(C)CC[C@@H]12` ?
Result: 89.6

Ask: Also `COc1cc([C@H](C)c2ccc3ccccc3c2)cc(OC)c1OC` ?
Result: 19.6

Ask: Also `COc1ccc(/C=C/C(=O)C(CC2CCC2)C(=O)/C=C/c2ccc(OC)c(OC)c2)cc1OC` ?
Result: -68.8

Ask: Also `CC1=C/C(=N\N=C2/C=C(C)CC(C)(C)C2)CC(C)(C)C1` ?
Result: 96

Ask: Also `N#Cc1c(-c2ccc(F)cc2)nc(N/N=C/c2cccc(O)c2)nc1N1CCOCC1` ?
Result: 73.5

Ask: Also `COc1cc(C(=O)Nc2cc(OC)c3ccn(C)c3c2)cc2c1C[C@]1(C)CC[C@@H](O)C(C)(C)[C@H]1O2` ?
Result: 16.5

Ask: Also `COc1cc(C(=O)Nc2cc(O)c(C/C=C(\C)CCC=C(C)C)c(O)c2)cc2c1O[C@]1(C)CC[C@@H](O)C(C)(C)[C@H]1C2` ?
Result: 6.63
